- Test method notes: qHTS assay to identify small molecule antagonists of the androgen receptor (AR) signaling pathway using the MDA cell line - cell viability counter screen (AID 743041; note: nearly all actives have a fitted effect of over 45% in size)
- Recorded conditions: MDA-kb2 viability, CellTiter-Fluor, 16 h, cells co-treated with R1881 androgen agonist; series mostly up to 70.3 µM
Results filed as inconclusive are left out. Active and inactive are the calls of the source. Calls come from the whole dose curve; as a rule, active = well fitted cell-killing curve with a large enough effect in the repeat runs; inconclusive = weak or mixed curves, or effect the other way; inactive = flat fitted curve, though single readings scatter.
Select the matching outcome among active, inactive

Observe how each entry below is paired with its result.
O=P(Oc1ccccc1)(Oc1ccccc1)Oc1ccccc1; inactive
O=Cc1ccco1; inactive
Brc1ccc(Oc2cc(Br)c(Br)cc2Br)c(Br)c1; inactive

(Q) Please state the recorded outcome for this compound: Nc1ccc(Cl)cc1N
(A) inactive

(Q) Hi, do you know how COP(=O)(OC)OC came out in this test?
(A) inactive

(Q) Per the records of this test, what outcome belongs to c1ccc(NNc2ccccc2)cc1 ?
(A) inactive

(Q) Assay result, entry C#CCOS(=O)OC1CCCCC1Oc1ccc(C(C)(C)C)cc1 (configuration not stated) — outcome?
(A) active
